Read-out: E-selectin (Homo sapiens)
Assay Text: BSK_3C_Eselectin: BioMAP Diversity Plus: 3C Assay for Eselectin Biomarker Activity (AID 2283015)
Condition Details: primary human endothelial cells (HUVEC); actives raise or lower the signal
Protocol: BSK_3C is a cell-based, multiplexed-readout assay that uses umbilical vein endothelium, a human vascular primary cell, with measurements taken at 24 hours after chemical dosing in a 96-well plate.BSK_3C_Eselectin is an assay component measured in the BSK_3C assay. It measures E-selectin antibody related to regulation of gene expression using ELISA technology.Data from the assay component BSK_3C_Eselectin was analyzed into 1 assay endpoint. […]
The source made the active and inactive calls. The calls were made as follows: active = hit-call score of the fitted dose curve at least 0.9, where 1 is the maximum; inactive = score below 0.9.
Assign a class; possible classes are active, inactive

Below are worked cases with known answers.
| Molecule | Qualitative Label |
| --- | --- |
| CN(C)C(=S)SSC(=S)N(C)C | active |
| N#Cc1cc(Br)c(O)c(Br)c1 | inactive |
| N#Cc1nn(-c2c(Cl)cc(C(F)(F)F)cc2Cl)c(N)c1S(=O)C(F)(F)F (stereo not drawn) | active |
| COP(N)(=O)SC (stereo not drawn) | inactive |
| CC(C)Oc1cc(-n2nc(C(C)(C)C)oc2=O)c(Cl)cc1Cl | active |
| C=CC1(C)OC(=O)N(c2cc(Cl)cc(Cl)c2)C1=O (stereo not drawn) | inactive |

stdin: What did this assay record as the result for CNC(=O)ON=CC(C)(C)SC ?
stdout: inactive

stdin: What did this assay record as the result for CON(C)C(=O)Nc1ccc(Cl)c(Cl)c1 ?
stdout: inactive

stdin: What did this assay record as the result for Oc1ccccc1-c1ccccc1 ?
stdout: inactive

stdin: What did this assay record as the result for O=C(O)COc1nc(Cl)c(Cl)cc1Cl ?
stdout: inactive

stdin: What did this assay record as the result for O=C(Nc1ccccc1)Nc1ccnc(Cl)c1 ?
stdout: inactive

stdin: What did this assay record as the result for CC1=C(C(=O)Nc2ccccc2)SCCO1 ?
stdout: inactive

stdin: What did this assay record as the result for C=CCC1=C(C)C(OC(=O)C2C(C=C(C)C)C2(C)C)CC1=O (stereo not drawn) ?
stdout: active
